- TARGET_SYSTEM: recombinant human LDHB (Homo sapiens, UniProt P07195)
- Sequence (P07195 whole entry): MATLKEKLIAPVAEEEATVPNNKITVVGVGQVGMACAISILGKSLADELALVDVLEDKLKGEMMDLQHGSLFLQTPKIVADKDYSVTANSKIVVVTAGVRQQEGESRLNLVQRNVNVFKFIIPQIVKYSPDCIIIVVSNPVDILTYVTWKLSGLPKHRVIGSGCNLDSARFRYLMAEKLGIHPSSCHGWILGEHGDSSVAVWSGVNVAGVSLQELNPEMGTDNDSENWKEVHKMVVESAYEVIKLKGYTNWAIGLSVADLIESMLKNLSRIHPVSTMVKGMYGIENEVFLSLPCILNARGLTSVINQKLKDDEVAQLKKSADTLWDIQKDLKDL
- TEST_DESCRIPTION: recombinant human LDHB enzyme assay (lactate to pyruvate, NADH via diaphorase/resazurin)
OBSERVABLE: pIC50
A value of pIC50 is the negative decimal logarithm of a concentration given in moles per litre.

Query: Find the recorded pIC50 belonging to COc1ncc(-c2ccc3c(Nc4cc(C(=O)O)cc(C5CCCC5)c4)c(S(=O)(=O)NC4CC4)cnc3c2)c(OC)n1 and report it.
Reply: 6.66

Further cases:
Query: Find the recorded pIC50 belonging to COc1ncc(-c2ccc3c(Nc4cc(Oc5ccc(F)cc5)cc(S(N)(=O)=O)c4)c(S(=O)(=O)NC4CC4)cnc3c2)c(OC)n1 and report it.
Reply: 7.26

###

- Tested on: cancer cell lines
- TEST_DESCRIPTION: Lactate production assay, panel of cancer cell lines
- CONDITIONS: Homo sapiens, read-out: lactate production EC50 across cell lines
pEC50: −log10 of the molar value.
OBSERVABLE: pEC50

Query: Please provide the recorded pEC50 for COc1ncc(-c2ccc3c(Nc4cc(Oc5cc(F)cc(F)c5)cc(C(=O)O)c4)c(S(=O)(=O)NC4CC4)cnc3c2)c(OC)n1 [Compound 1] , tested on cancer cell lines.
Reply: ≤ 6.40
